assay: In vivo kinetics experiment (radioactivity distribution); parameters: species or system Wistar male rat; settings: 30 min after administration; rat i.v.; mean ± SD
EXPERIMENTAL READOUT: Adrenal gland/small intestine ratio of radioactivity accumulation

[[record]]
compound = "CCn1c(-c2cncc(Cn3ccnc3)c2)nc2ccc([123I])cc21 [[^123I] 608]"
endpoint_result = 3.39

[[record]]
compound = "Fc1cc2nc(-c3cncc(Cn4ccnc4)c3)n(Cc3ccc([123I])cc3)c2cc1Cl [[^123I] 605]"
endpoint_result = 0.79

[[record]]
compound = "FCCn1c(-c2cncc(Cn3cncc3[123I])c2)nc2cc(F)c(Cl)cc21 [[^123I] 610]"
endpoint_result = 16.12

[[record]]
compound = "COC(=O)c1cncn1[C@H](C)c1ccc(I)cc1 [[^123I] IMTO, (R)-[^123I]iodometomidate, reference compound]"
endpoint_result = 25.49

[[record]]
compound = "Cn1c(-c2cncc(Cn3ccnc3)c2)nc2ccc([123I])cc21 [[^123I] 607]"
endpoint_result = 2.89

[[record]]
compound = "CC(C)n1c(-c2cncc(Cn3ccnc3)c2)nc2ccc([123I])cc21 [[^123I] 606]"
endpoint_result = 7.82

[[record]]
compound = "FCCn1c(-c2cncc(Cn3ccnc3)c2)nc2ccc([123I])cc21 [[^123I] 604]"
endpoint_result = 4.37

[[record]]
compound = "COc1cc([123I])cc2c1nc(-c1cncc(Cn3ccnc3)c1)n2C1CC1 [[^123I] 609]"
endpoint_result = 2.54


* * *

Test: In vivo kinetics experiment (radioactivity distribution)
Parameters: species or system Wistar male rat
Conditions: 30 min after administration; rat i.v.; mean ± SD
Description: Each of Compounds [^18F] 100, [^18F] 200, [^123I] 400, [^18F] 500, and [^123I] 601 to 610 obtained by the methods described in Examples 2, 4, 7, 9, 11, 13, 15, 17, 19, 21, 23, 25, 27, and 29, or [^123I] […] From the thus sacrificed rat, blood and organs (heart, lung, stomach, liver, spleen, small intestine, large intestine, kidney, bladder (including urine), muscle (lower limbs), brain, adrenal gland, testis, fat, femur, or thyroid gland) were excised, and the weights thereof were then measured. […]
EXPERIMENTAL READOUT: Adrenal gland/blood ratio of radioactivity accumulation

[[record]]
compound = "COc1cc([123I])cc2c1nc(-c1cncc(Cn3ccnc3)c1)n2C1CC1 [[^123I] 609]"
endpoint_result = 78.36

[[record]]
compound = "Fc1cc2nc(-c3cncc(Cn4ccnc4)c3)n(Cc3ccc([123I])cc3)c2cc1Cl [[^123I] 605]"
endpoint_result = 26.42

[[record]]
compound = "FCCn1c(-c2cncc(Cn3ccnc3)c2)nc2ccc([123I])cc21 [[^123I] 604]"
endpoint_result = 170.18

[[record]]
compound = "COC(=O)c1cncn1[C@H](C)c1ccc(I)cc1 [[^123I] IMTO, (R)-[^123I]iodometomidate, reference compound]"
endpoint_result = 6.84

[[record]]
compound = "CC(C)n1c(-c2cncc(Cn3ccnc3)c2)nc2ccc([123I])cc21 [[^123I] 606]"
endpoint_result = 151.28

[[record]]
compound = "Cn1c(-c2cncc(Cn3ccnc3)c2)nc2ccc([123I])cc21 [[^123I] 607]"
endpoint_result = 163.89

[[record]]
compound = "CCn1c(-c2cncc(Cn3ccnc3)c2)nc2ccc([123I])cc21 [[^123I] 608]"
endpoint_result = 172.72

[[record]]
compound = "FCCn1c(-c2cncc(Cn3cncc3[123I])c2)nc2cc(F)c(Cl)cc21 [[^123I] 610]"
endpoint_result = 23.78


* * *

assay: In vivo kinetics experiment (radioactivity distribution); design: species or system Wistar male rat; conditions: rat, caudal vein, 60 min after administration
EXPERIMENTAL READOUT: Radioactivity distribution Fat

[[record]]
molecule = "Fc1cc2nc(-c3cncc(Cn4ccnc4)c3)n(CCC[18F])c2cc1Cl [[^18F] 500]"
endpoint_result = "0.06 ± 0.02 % ID/g"

[[record]]
molecule = "[123I]c1ccc2nc(-c3cncc(Cn4ccnn4)c3)n(C3CC3)c2c1 [[^123I] 603]"
endpoint_result = "0.12 ± 0.04 % ID/g"

[[record]]
molecule = "FCCn1c(-c2cncc(Cn3ccnc3)c2)nc2cc(F)c([123I])cc21 [[^123I] 400]"
endpoint_result = "0.11 ± 0.02 % ID/g"

[[record]]
molecule = "Fc1cc2nc(-c3cncc(Cn4ccnc4)c3)n(CC[18F])c2cc1Cl [[^18F] 100]"
endpoint_result = "0.06 ± 0.03 % ID/g"

[[record]]
molecule = "Fc1cc2nc(-c3cncc(Cn4ccnc4)c3)n(CC[18F])c2cc1Br [[^18F] 200]"
endpoint_result = "0.05 ± 0.00 % ID/g"

[[record]]
molecule = "[123I]c1ccc2nc(-c3cncc(Cn4ccnc4)c3)n(C3CC3)c2c1 [[^123I] 602]"
endpoint_result = "0.11 ± 0.02 % ID/g"


* * *

Experiment: In vivo kinetics experiment (radioactivity distribution)
Parameters: species or system Wistar male rat
Conditions: rat, caudal vein, 60 min after administration
Procedure: Each of Compounds [^18F] 100, [^18F] 200, [^123I] 400, [^18F] 500, and [^123I] 601 to 610 obtained by the methods described in Examples 2, 4, 7, 9, 11, 13, 15, 17, 19, 21, 23, 25, 27, and 29, or [^123I] […] From the thus sacrificed rat, blood and organs (heart, lung, stomach, liver, spleen, small intestine, large intestine, kidney, bladder (including urine), muscle (lower limbs), brain, adrenal gland, testis, fat, femur, or thyroid gland) were excised, and the weights thereof were then measured. […]
The threshold is inclusive: Radioactivity distribution Liver of exactly 3 % ID/g counts as Satisfied; values below receive Not satisfied.

[[record]]
compound = "[123I]c1ccc2nc(-c3cncc(Cn4ccnc4)c3)n(C3CC3)c2c1 [[^123I] 602]"
class_name = "Not satisfied"

[[record]]
compound = "Fc1cc2nc(-c3cncc(Cn4ccnc4)c3)n(CC[18F])c2cc1Cl [[^18F] 100]"
class_name = "Satisfied"

[[record]]
compound = "Fc1cc2nc(-c3cncc(Cn4ccnc4)c3)n(CC[18F])c2cc1Br [[^18F] 200]"
class_name = "Satisfied"

[[record]]
compound = "[123I]c1ccc2nc(-c3cncc(Cn4ccnn4)c3)n(C3CC3)c2c1 [[^123I] 603]"
class_name = "Not satisfied"

[[record]]
compound = "FCCn1c(-c2cncc(Cn3ccnc3)c2)nc2cc(F)c([123I])cc21 [[^123I] 400]"
class_name = "Not satisfied"


* * *

test: In vivo kinetics experiment (radioactivity distribution); design: species or system Wistar male rat; conditions: 30 min after administration; rat i.v.; mean ± SD
Quick list: Adrenal gland/muscle ratio of radioactivity accumulation per entry.
EXPERIMENTAL READOUT: Adrenal gland/muscle ratio of radioactivity accumulation

[[record]]
compound = "COc1cc([123I])cc2c1nc(-c1cncc(Cn3ccnc3)c1)n2C1CC1 [[^123I] 609]"
endpoint_result = 66.27

[[record]]
compound = "FCCn1c(-c2cncc(Cn3cncc3[123I])c2)nc2cc(F)c(Cl)cc21 [[^123I] 610]"
endpoint_result = 94.79

[[record]]
compound = "FCCn1c(-c2cncc(Cn3ccnc3)c2)nc2ccc([123I])cc21 [[^123I] 604]"
endpoint_result = 100.20

[[record]]
compound = "CC(C)n1c(-c2cncc(Cn3ccnc3)c2)nc2ccc([123I])cc21 [[^123I] 606]"
endpoint_result = 130.86


* * *

Quick list: Radioactivity distribution Kidney per entry.
Assay: In vivo kinetics experiment (radioactivity distribution)
Design: species or system Wistar male rat
Conditions: rat, caudal vein, 60 min after administration
Description: Each of Compounds [^18F] 100, [^18F] 200, [^123I] 400, [^18F] 500, and [^123I] 601 to 610 obtained by the methods described in Examples 2, 4, 7, 9, 11, 13, 15, 17, 19, 21, 23, 25, 27, and 29, or [^123I] […] From the thus sacrificed rat, blood and organs (heart, lung, stomach, liver, spleen, small intestine, large intestine, kidney, bladder (including urine), muscle (lower limbs), brain, adrenal gland, testis, fat, femur, or thyroid gland) were excised, and the weights thereof were then measured. […]
EXPERIMENTAL READOUT: Radioactivity distribution Kidney (% ID/g)

[[record]]
compound = "Fc1cc2nc(-c3cncc(Cn4ccnc4)c3)n(CCC[18F])c2cc1Cl [[^18F] 500]"
endpoint_result = 1.23

[[record]]
compound = "FCCn1c(-c2cncc(Cn3ccnc3)c2)nc2cc(F)c([123I])cc21 [[^123I] 400]"
endpoint_result = 0.62

[[record]]
compound = "[123I]c1ccc2nc(-c3cncc(Cn4ccnn4)c3)n(C3CC3)c2c1 [[^123I] 603]"
endpoint_result = 1.23

[[record]]
compound = "Fc1cc2nc(-c3cncc(Cn4ccnc4)c3)n(CC[18F])c2cc1Cl [[^18F] 100]"
endpoint_result = 1.13

[[record]]
compound = "Fc1cc2nc(-c3cncc(Cn4ccnc4)c3)n(CC[18F])c2cc1Br [[^18F] 200]"
endpoint_result = 1.21

[[record]]
compound = "[123I]c1ccc2nc(-c3cncc(Cn4ccnc4)c3)n(C3CC3)c2c1 [[^123I] 602]"
endpoint_result = 0.62

